assay: Half life in Beagle dog blood at 1 uM by LC-MS/MS analysis; format: ADME, tissue-based, Canis lupus familiaris
readout label: half-life at 1 µM (h)
Your answer is read as h, so omit the unit and give the number.

# get_value(readout='half-life at 1 µM', item= `C=CC(=O)N[C@@H]1CN(c2nc(Nc3cn(C)nc3OC)c3ncn(C)c3n2)C[C@H]1F` )
4.65

###

test: Oral bioavailability in Wistar Han rat at 30 mg/kg administered as single dose; format: ADME, organism-based; settings: in vivo
readout label: bioavailability (%)
Report the figure in % without appending any unit label.

Requested field: bioavailability. Item: `C=CC(=O)N[C@@H]1CN(c2nc(Nc3cn(C)nc3OC)c3ncn(C)c3n2)C[C@H]1F`
11

###

assay: Half life in CD-1 mouse blood at 1 uM by LC-MS/MS analysis; type: ADME, tissue-based
readout label: half-life at 1 µM (h)
Please reply with the bare figure in h and do not write the unit itself.

Data request, read-out half-life at 1 µM, for `C=CC(=O)N[C@@H]1CN(c2nc(Nc3cn(C)nc3OC)c3ncn(C)c3n2)C[C@H]1F`
5.1

###

target: CYP2C9 (Homo sapiens, UniProt P11712); experiment: Inhibition of human CYP2C9 at 10 uM; format: ADME
Sequence (P11712 whole entry): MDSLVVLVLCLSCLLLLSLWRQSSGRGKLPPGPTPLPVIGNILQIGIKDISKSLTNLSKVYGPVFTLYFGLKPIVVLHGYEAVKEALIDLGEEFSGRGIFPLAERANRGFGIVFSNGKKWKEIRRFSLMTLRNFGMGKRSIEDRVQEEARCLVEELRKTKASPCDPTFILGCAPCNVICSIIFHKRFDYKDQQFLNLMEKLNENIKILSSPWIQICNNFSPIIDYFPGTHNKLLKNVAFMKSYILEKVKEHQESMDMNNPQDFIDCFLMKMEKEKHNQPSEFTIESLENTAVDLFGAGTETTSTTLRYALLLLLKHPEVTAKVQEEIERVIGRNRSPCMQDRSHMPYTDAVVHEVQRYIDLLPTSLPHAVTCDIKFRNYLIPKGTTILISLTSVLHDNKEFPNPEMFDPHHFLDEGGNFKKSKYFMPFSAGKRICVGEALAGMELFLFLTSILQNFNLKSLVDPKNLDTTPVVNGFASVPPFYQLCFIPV
readout label: inhibition at 10 µM

Any idea what inhibition at 10 µM was measured for C=CC(=O)N[C@@H]1CN(c2nc(Nc3cn(C)nc3OC)c3ncn(C)c3n2)C[C@H]1F [MAVELERTINIB] ?
< 30%

###

test: Half life in Sprague-Dawley rat blood at 1 uM by LC-MS/MS analysis; format: ADME, tissue-based
readout label: half-life at 1 µM
State the result as a value with its unit after it.

What measured half-life at 1 µM goes with C=CC(=O)N[C@@H]1CN(c2nc(Nc3cn(C)nc3OC)c3ncn(C)c3n2)C[C@H]1F [MAVELERTINIB] ?
3.95 h

###

test: Fraction unbound in mouse plasma at 2 uM by LC-MS/MS based equilibrium dialysis method; type: ADME, cell-free
readout label: fraction unbound at 2 µM

// returns reported fraction unbound at 2 µM for input `C=CC(=O)N[C@@H]1CN(c2nc(Nc3cn(C)nc3OC)c3ncn(C)c3n2)C[C@H]1F`
0.2 to 0.49

###

target: CYP2D6 (Homo sapiens, UniProt P10635); experiment: Inhibition of human CYP2D6 at 10 uM; assay type: ADME
Sequence (P10635 whole entry): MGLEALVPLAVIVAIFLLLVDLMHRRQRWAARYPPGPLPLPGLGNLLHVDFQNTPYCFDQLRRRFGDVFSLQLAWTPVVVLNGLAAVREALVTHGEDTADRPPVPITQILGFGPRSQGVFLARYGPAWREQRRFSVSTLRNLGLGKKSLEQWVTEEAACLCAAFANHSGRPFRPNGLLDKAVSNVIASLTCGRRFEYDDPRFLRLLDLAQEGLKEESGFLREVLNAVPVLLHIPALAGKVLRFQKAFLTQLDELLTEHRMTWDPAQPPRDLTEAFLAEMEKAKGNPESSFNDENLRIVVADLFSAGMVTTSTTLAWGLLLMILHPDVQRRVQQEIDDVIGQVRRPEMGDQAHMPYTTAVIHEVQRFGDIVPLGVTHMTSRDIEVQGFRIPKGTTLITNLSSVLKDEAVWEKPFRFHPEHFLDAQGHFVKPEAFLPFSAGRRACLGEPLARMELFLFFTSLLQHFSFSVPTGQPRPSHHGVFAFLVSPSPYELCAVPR
readout label: inhibition at 10 µM

Field request: inhibition at 10 µM | item: C=CC(=O)N[C@@H]1CN(c2nc(Nc3cn(C)nc3OC)c3ncn(C)c3n2)C[C@H]1F [MAVELERTINIB]
< 30%

###

molecular target: UniProt:P10632; assay: Inhibition of human CYP2C8 at 10 uM; assay type: ADME
Sequence (P10632 whole entry): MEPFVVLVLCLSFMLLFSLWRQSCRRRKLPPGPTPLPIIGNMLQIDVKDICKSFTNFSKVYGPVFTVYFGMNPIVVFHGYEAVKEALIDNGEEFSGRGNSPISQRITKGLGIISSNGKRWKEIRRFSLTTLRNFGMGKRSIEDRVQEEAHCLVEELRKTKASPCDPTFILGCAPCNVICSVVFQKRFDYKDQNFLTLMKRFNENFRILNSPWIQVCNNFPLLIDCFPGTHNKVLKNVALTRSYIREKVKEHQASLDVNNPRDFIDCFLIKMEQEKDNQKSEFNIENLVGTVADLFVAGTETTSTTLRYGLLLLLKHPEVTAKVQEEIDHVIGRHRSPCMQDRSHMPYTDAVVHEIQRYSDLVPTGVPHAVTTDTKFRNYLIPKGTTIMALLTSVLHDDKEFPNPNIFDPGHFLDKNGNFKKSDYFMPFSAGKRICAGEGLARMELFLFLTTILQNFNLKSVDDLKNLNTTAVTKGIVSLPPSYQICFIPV
readout label: inhibition at 10 µM

Can you share its inhibition at 10 µM? I mean this compound: `C=CC(=O)N[C@@H]1CN(c2nc(Nc3cn(C)nc3OC)c3ncn(C)c3n2)C[C@H]1F`
< 30%

###

assay: Apparent intrinsic hepatic clearance in rat hepatocytes; assay type: ADME, cell-based, Hepatocyte; conditions: read-out: CLH(app)
readout label: CLint scaled (mL/min/kg)
Please respond with the number in mL/min/kg and leave the unit unwritten.

Given the compound C=CC(=O)N[C@@H]1CN(c2nc(Nc3cn(C)nc3OC)c3ncn(C)c3n2)C[C@H]1F [MAVELERTINIB] , what is its reported CLint scaled?
183

###

assay: Apparent intrinsic clearance in mouse microsomes; assay type: ADME, Microsome; conditions: read-out: CL(app)
readout label: CLint scaled (L/h/kg)
Quick note: give the figure in L/h/kg, leave out the unit.

I would be grateful if you could share the reported CLint scaled for `C=CC(=O)N[C@@H]1CN(c2nc(Nc3cn(C)nc3OC)c3ncn(C)c3n2)C[C@H]1F` .
4.44

###

experiment: physchem; settings: phosphate buffer with glutathione, pH 7.4
readout label: half-life at 2 h, 1 µM
In your response, put the unit directly after the numeric value.

Field request: half-life at 2 h, 1 µM | item: C=CC(=O)Nc1cc2c(Nc3ccc(F)c(Cl)c3)ncnc2cc1OCCCN1CCOCC1 [CANERTINIB]
21 min
